The reported numbers originate from ChEMBL document CHEMBL3414493.

For Acetylcholinesterase (Electrophorus electricus), measured IC50 is reported for the entries below.
Answers are plain numbers, in nM.

# count of solved cases: 5
CCOc1ccc2c(c1)OC/C(=C\c1ccc(OCCN3CCOCC3)cc1)C2=O ... 1000
O=C1/C(=C/c2ccc(OCCN3CCCCC3)cc2)COc2cc(OCc3ccccc3)ccc21 ... 207
O=C1/C(=C/c2ccc(OCCN3CCCCC3)cc2)COc2cc(O)ccc21 ... 192
CCOc1ccc2c(c1)OC/C(=C\c1ccc(OCCN3CCCCC3)cc1)C2=O ... 122
O=C1/C(=C/c2ccc(OCCCN3CCOCC3)cc2)COc2cc(O)ccc21 ... 158000

// batch mode: one IC50 value per listed entry
1. O=C1/C(=C/c2ccc(OCCCN3CCCCC3)cc2)COc2cc(O)ccc21
2. CCOc1ccc2c(c1)OC/C(=C\c1ccc(OCCCN3CCCCC3)cc1)C2=O
3. O=C1/C(=C/c2ccc(OCCCN3CCOCC3)cc2)COc2cc(OCc3ccccc3)ccc21
4. O=C1/C(=C/c2ccc(OCCCN3CCCCC3)cc2)COc2cc(OCc3ccccc3)ccc21
5. O=C1/C(=C/c2ccc(OCCN3CCOCC3)cc2)COc2cc(O)ccc21

Result:
[2380, 562, 50000, 2700, 8160]

----------
Test system Cholinesterase (Equus caballus), log10 IC50 listed for each of the compounds.
Values are log10 of IC50 in µM.

See these solved cases before continuing.
COc1ccc2c(c1)OC/C(=C\c1ccc(OCCCN3CCCC3)cc1)C2=O ... 0.84
O=C1/C(=C/c2ccc(OCCCN3CCCCC3)cc2)COc2cc(OCc3ccccc3)ccc21 ... 1.51
CCOc1ccc2c(c1)OC/C(=C\c1ccc(OCCN3CCCCC3)cc1)C2=O ... -0.07
O=C1/C(=C/c2ccc(OCCN3CCCCC3)cc2)COc2cc(O)ccc21 ... 0.33

# batch: return log10 IC50 for each of the 5 compounds below
1. CCOc1ccc2c(c1)OC/C(=C\c1ccc(OCCCN3CCOCC3)cc1)C2=O
2. COc1ccc2c(c1)OC/C(=C\c1ccc(OCCN3CCCCC3)cc1)C2=O
3. O=C1/C(=C/c2ccc(OCCN3CCOCC3)cc2)COc2cc(OCc3ccccc3)ccc21
4. COc1ccc2c(c1)OC/C(=C\c1ccc(OCCCN3CCCCC3)cc1)C2=O
5. O=C1/C(=C/c2ccc(OCCN3CCCCC3)cc2)COc2cc(OCc3ccccc3)ccc21

Result:
1: 1.46; 2: 0.91; 3: 1.92; 4: 1.42; 5: 0.41

Items follow; give log10 IC50 for each.
1. CCOc1ccc2c(c1)OC/C(=C\c1ccc(OCCN3CCOCC3)cc1)C2=O
2. COc1ccc2c(c1)OC/C(=C\c1ccc(OCCCN3CCOCC3)cc1)C2=O
3. COc1ccc2c(c1)OC/C(=C\c1ccc(OCCN3CCOCC3)cc1)C2=O
4. O=C1/C(=C/c2ccc(OCCN3CCOCC3)cc2)COc2cc(O)ccc21
5. O=C1/C(=C/c2ccc(OCCCN3CCCCC3)cc2)COc2cc(O)ccc21
6. CCOc1ccc2c(c1)OC/C(=C\c1ccc(OCCCN3CCCCC3)cc1)C2=O
7. O=C1/C(=C/c2ccc(OCCCN3CCCC3)cc2)COc2cc(OCc3ccccc3)ccc21

Result:
1.01
2.00
1.06
1.98
1.44
0.49
1.69

----------
Answer each item with its documented pIC50.
Biological target: Acetylcholinesterase (Electrophorus electricus, UniProt O42275)
Sequence (O42275 whole entry): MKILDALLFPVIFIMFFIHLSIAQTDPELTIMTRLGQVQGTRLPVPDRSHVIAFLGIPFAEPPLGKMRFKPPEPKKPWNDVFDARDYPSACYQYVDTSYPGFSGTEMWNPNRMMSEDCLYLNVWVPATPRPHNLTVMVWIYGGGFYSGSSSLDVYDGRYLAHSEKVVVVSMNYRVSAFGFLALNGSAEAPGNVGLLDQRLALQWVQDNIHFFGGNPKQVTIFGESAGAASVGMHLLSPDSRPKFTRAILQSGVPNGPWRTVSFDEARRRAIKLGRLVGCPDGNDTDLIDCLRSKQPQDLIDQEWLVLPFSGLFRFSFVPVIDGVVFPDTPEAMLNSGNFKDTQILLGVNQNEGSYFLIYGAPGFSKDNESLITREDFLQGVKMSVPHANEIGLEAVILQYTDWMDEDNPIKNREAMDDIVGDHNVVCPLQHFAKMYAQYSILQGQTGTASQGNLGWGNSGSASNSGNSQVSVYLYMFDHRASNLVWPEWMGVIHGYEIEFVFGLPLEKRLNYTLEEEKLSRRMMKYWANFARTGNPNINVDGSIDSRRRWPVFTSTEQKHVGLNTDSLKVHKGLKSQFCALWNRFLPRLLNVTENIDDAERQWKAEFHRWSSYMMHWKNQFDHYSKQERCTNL
Answers are plain numbers, as −log10 of the molar value.

These solved cases illustrate the format of a correct answer.
COc1ccc2c(c1)OC/C(=C\c1ccc(OCCN3CCOCC3)cc1)C2=O ... 5.72
COc1ccc2c(c1)OC/C(=C\c1ccc(OCCCN3CCCCC3)cc1)C2=O ... 5.48
O=C1/C(=C/c2ccc(OCCCN3CCCC3)cc2)COc2cc(OCc3ccccc3)ccc21 ... 5.46
COc1ccc2c(c1)OC/C(=C\c1ccc(OCCCN3CCOCC3)cc1)C2=O ... 4.86

// batch mode: one pIC50 value per listed entry
1. CCOc1ccc2c(c1)OC/C(=C\c1ccc(OCCCN3CCOCC3)cc1)C2=O
2. COc1ccc2c(c1)OC/C(=C\c1ccc(OCCN3CCCCC3)cc1)C2=O

Result:
5.16
6.76

For every item in the list below, what is its measured pIC50?
1. O=C1/C(=C/c2ccc(OCCN3CCOCC3)cc2)COc2cc(OCc3ccccc3)ccc21
2. COc1ccc2c(c1)OC/C(=C\c1ccc(OCCCN3CCCC3)cc1)C2=O

Result:
1. 5.19
2. 5.96
